Measured values drawn from patent US20260116991A1 for this set.

Biological target: biotinylated labeled human GPC3 protein (produced in-house) (human, UniProt P51654 25-559, limits assumed, biotinylated (Dojindo, Cat. No. LK03); sites not stated)
Experiment: ELISA, biotinylated human GPC3 protein
Exercise: state measured OD450 at 2.67 nM for each of the binders provided.
Provide only the numeric value, understood in OD450.

Param item = hAb001H1aL1 (antibody, human IgG1, V domains shown, Humanized F2.169.2; VH H1a + VL L1; expressed as human IgG1) VH: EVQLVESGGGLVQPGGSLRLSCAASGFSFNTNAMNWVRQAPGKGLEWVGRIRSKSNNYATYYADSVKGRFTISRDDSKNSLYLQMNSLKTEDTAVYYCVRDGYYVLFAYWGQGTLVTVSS VL: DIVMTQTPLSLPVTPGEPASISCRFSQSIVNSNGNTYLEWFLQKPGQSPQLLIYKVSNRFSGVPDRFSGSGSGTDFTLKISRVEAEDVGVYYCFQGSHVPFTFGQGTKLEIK ; retrieve measured OD450 at 2.67 nM.
2.42

Param item = hAb006LH3L1a (antibody, human IgG1, V domains shown, Humanized F3.38.7; VH H3 + VL L1a; expressed as human IgG1) VH: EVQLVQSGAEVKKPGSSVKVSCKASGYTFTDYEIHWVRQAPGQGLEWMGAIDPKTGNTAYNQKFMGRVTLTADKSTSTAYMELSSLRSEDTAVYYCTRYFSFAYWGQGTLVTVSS VL: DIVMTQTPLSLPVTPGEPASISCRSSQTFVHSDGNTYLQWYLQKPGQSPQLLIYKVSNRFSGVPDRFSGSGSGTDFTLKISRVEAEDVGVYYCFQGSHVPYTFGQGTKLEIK ; retrieve measured OD450 at 2.67 nM.
1.48

Param item = hAb007LH2L1a (antibody, human IgG1, V domains shown, Humanized F3.81.19; VH H2 + VL L1a; expressed as human IgG1) VH: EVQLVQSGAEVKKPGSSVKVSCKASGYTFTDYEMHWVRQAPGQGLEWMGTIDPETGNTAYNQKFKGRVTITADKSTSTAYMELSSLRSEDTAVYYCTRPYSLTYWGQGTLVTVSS VL: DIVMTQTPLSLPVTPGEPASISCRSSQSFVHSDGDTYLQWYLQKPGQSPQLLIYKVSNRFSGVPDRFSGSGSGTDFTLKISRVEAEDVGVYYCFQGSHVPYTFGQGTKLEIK ; retrieve measured OD450 at 2.67 nM.
1.95
